The following compounds are shown together with reported pIC50 values.
test_target: HIV integrase (Human immunodeficiency virus type 1 group M subtype B, UniProt P04585)
procedure_text: Strand transfer specific assay
Assay type: biochemical
condition_details: Table 8 cells marked (ST) / (ST assay): strand transfer specific
pIC50: −log10 of the molar value.

Exercise: Please look at this compound and report its pIC50: N#Cc1c(-c2oncc2C(=O)O)cc(-c2ccc(N3CCOCC3)cc2)nc1OCc1ccc(C(=O)O)s1
Solution: > 5.00

Exercise: Please look at this compound and report its pIC50: CCOc1cnc(-c2cc(-c3ccc(N4CCOCC4)cc3)nc(OCc3ccc(C(=O)O)cc3Br)c2C#N)o1
Solution: > 5.00

Exercise: Please look at this compound and report its pIC50: Cc1cc(-c2cc(-c3ccc(N4CCOCC4)cc3)nc(OCc3ccc(C(=O)O)cc3Br)c2C#N)on1
Solution: > 5.00

New cases:
Exercise: Please look at this compound and report its pIC50: CCOc1cnc(-c2cc(-c3ccc(N4CCOCC4)cc3)nc(OCc3sc(C(=O)O)cc3C#N)c2C#N)o1
Solution: > 5.00

This collection of values is drawn from patent US20100009973A1.
